- SYSTEM: UniProt O15393
- Sequence (O15393 106-492 limits assumed): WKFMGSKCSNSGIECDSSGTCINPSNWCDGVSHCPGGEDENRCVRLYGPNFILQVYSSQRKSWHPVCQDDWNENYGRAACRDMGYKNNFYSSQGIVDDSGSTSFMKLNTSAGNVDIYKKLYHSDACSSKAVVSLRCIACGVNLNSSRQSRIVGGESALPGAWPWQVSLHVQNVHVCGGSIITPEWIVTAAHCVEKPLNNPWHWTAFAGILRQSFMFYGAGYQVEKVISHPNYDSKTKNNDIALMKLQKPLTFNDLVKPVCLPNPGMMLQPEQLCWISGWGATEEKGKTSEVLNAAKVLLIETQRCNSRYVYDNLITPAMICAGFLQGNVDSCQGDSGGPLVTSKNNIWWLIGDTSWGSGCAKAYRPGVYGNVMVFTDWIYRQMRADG
- METHOD_SUMMARY: Fluorogenic kinetic enzyme inhibitor assay, TMPRSS2
- Assay type: biochemical
- Design: purchased Cusabio Technology CSB-YP023924HU
Entries and their measured IC50 follow.
Answer format: numeric, nM implied, no suffix.

CC(=O)N[C@H]1CC(=O)NCCCC[C@@H](C(=O)N[C@@H](CCCNC(=N)N)C(=O)c2nc3ccccc3s2)NC(=O)[C@H](CC(C)C)NC1=O: 2.14

Query string: // Input: `CC(=O)N[C@@H](CCC(C)C)C(=O)N[C@@H](CCC(=O)OC1CCCCC1)C(=O)N[C@@H](Cc1ccc(F)cc1)C(=O)N[C@@H](CCCNC(=N)N)C(=O)c1nc2ccccc2s1` . Output its IC50 only.
Result string: 0.085

Query string: In one line, give reported IC50 of the entry C=CCOC(=O)CC[C@H](NC(=O)[C@@H]1Cc2ccccc2N1C(C)=O)C(=O)N[C@@H](Cc1ccc(F)cc1)C(=O)N[C@@H](CCCNC(=N)N)C(=O)c1nc2ccccc2s1 [MF1067B] .
Result string: 0.2

Query string: Look up IC50 of C=CCOC(=O)CC[C@H](NC(=O)[C@@H]1Cc2ccccc2N1C(C)=O)C(=O)N[C@@H](Cc1ccc(F)cc1)C(=O)N[C@H](CCCNC(=N)N)C(=O)c1nc2ccccc2s1 [MF1067A] and report it.
Result string: 0.431

Query string: Return IC50 (reported value) for this compound: `CC(=O)N[C@@H](CCCCN)C(=O)N[C@@H](CCC(N)=O)C(=O)N[C@@H](CC(C)C)C(=O)N[C@@H](CCCNC(=N)N)C(=O)c1nc2ccccc2s1`
Result string: 18.1
